Assayed System: HSA (V) (Homo sapiens, UniProt P02768)
Construct: Human serum albumin, fraction V, with a purity ≧95% as indicated by cellulose acetate electrophoresis
Sequence (P02768 25-609): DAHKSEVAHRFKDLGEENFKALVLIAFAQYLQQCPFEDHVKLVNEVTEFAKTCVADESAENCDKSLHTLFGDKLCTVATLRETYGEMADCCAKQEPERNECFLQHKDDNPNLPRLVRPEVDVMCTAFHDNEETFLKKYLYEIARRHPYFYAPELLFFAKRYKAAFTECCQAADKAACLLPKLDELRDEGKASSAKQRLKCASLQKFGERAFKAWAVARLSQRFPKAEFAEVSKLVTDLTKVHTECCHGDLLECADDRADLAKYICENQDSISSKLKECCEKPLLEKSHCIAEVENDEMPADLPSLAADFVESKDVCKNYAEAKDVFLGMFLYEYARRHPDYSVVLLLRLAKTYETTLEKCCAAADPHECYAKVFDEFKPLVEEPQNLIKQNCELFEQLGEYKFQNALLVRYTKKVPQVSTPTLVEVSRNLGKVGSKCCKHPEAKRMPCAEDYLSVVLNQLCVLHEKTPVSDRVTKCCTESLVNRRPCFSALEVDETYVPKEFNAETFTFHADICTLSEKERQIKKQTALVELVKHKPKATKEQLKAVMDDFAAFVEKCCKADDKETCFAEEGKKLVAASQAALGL
Assay Procedure: Isothermal titration calorimetry of the probe with HSA
Experimental Parameters: ITC, PBS; read-out: average affinity for all binding interactions
Endpoint Label: pKd
// scale note: pKd = -log10(conc_M); give the bare number

Give the reported pKd for this compound. Cn1c(/C=C/c2ccc(C#N)cc2C(=O)O)cc2ccccc21 [the probe]
4.82

* * *

Assayed System: HSA (fraction V) (Homo sapiens)
Sequence (P02768 25-609): as above
Assay Procedure: biochemical
Endpoint Label: Kd (µM)
The answer is to be given in µM; state only the numeric part.

Give the reported value of Kd for this record: Cn1c(/C=C/c2ccc(C#N)cc2C(=O)O)cc2ccccc21
0.39
